Biological target: GCGR extracellular domain (human, UniProt P47871)
Sequence (P47871 26-477): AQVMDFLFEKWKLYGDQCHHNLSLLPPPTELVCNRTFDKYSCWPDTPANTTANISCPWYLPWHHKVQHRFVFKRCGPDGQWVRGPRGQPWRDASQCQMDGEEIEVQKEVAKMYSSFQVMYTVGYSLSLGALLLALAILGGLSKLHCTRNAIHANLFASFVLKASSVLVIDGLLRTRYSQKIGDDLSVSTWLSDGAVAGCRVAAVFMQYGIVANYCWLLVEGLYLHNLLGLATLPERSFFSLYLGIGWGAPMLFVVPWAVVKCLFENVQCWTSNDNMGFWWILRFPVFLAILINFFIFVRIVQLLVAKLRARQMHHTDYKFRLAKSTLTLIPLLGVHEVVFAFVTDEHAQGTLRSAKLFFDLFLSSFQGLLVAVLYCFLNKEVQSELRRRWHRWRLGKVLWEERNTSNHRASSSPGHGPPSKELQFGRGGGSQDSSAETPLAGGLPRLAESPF
Experiment: SPR
ATTRIBUTE MEASURED: Kd

1. VH Y30D (antibody, V domains shown) VH: EVQLVESGGGLVQPGGSLRLSCAASGFNIDYNYIHWVRQAPGKGLEWVAEFSPYSGSTYYADSVKGRFTISADTSKNTAYLQMNSLRAEDTAVYYCARSAAIVDWYDYFKGFDYWGQGTLVTVSS VL: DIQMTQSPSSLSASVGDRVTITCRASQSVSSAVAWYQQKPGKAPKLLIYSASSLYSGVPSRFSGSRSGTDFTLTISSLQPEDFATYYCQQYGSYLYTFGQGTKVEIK	20.2 nM

Here is the next item to consider.
Query :: Fill in the blank: the reported Kd of VH Y31L (antibody, V domains shown) VH: EVQLVESGGGLVQPGGSLRLSCAASGFNIYLNYIHWVRQAPGKGLEWVAEFSPYSGSTYYADSVKGRFTISADTSKNTAYLQMNSLRAEDTAVYYCARSAAIVDWYDYFKGFDYWGQGTLVTVSS VL: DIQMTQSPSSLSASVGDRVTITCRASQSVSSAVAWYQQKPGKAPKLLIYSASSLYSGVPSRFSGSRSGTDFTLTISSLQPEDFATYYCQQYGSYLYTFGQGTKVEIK is ____.
Result :: 2640 nM
